All values here come from paper PMC10160475.

- Protocol description: Liver microsomal stability, mouse
- Recorded conditions: mouse, liver microsomes
- Procedure: Compounds were incubated with samples of liver microsomes from mice, rats, and humans and NADPH for 5, 10, 20, 30, or 60 min at 37°C. A cold acetonitrile solution containing tolbutamide was used to terminate the reaction. Testosterone and dextromethorphan were used as positive controls. […] The retention time, chromatogram acquisition, and chromatogram integration of compounds and positive control substances were analyzed using Analyst (AB Sciex, Framingham, MA, United States).
Measurement label: CLint scaled (mL/min/kg)
Supply the numeric figure in mL/min/kg, leaving out any unit text.

## Input Report CLint scaled for c1csc([C@@H]2CNCCO2)c1 [Compound 50B] please.
## Output 80.8

====

- Protocol description: Liver microsomal stability, mouse
- Recorded conditions: mouse, liver microsomes
Measurement label: half-life (min)
Supply the numeric figure in min, leaving out any unit text.

## Input Report half-life for c1csc([C@@H]2CNCCO2)c1 [Compound 50B] please.
## Output 67.9

====

- Protocol description: Liver microsomal stability, monkey
- Recorded conditions: monkey, liver microsomes
Measurement label: CLint scaled

## Input Report CLint scaled for c1csc([C@@H]2CNCCO2)c1 [Compound 50B] please.
## Output < 13.5 mL/min/kg

====

- Protocol description: Pharmacokinetics study in rats
- Type: in vivo, Sprague–Dawley rats
- Recorded conditions: male, Sprague-Dawley, rat, plasma, oral, 5 mg/kg, i.g. vs 2 mg/kg i.v., read-out: F (oral bioavailability)
Measurement label: bioavailability

## Input Report bioavailability for c1csc([C@@H]2CNCCO2)c1 [Compound 50B] please.
## Output ~84.3%

====

- Target: D2S receptors (Homo sapiens, UniProt P14416)
- Sequence (P14416 1-414 isoform P14416-2): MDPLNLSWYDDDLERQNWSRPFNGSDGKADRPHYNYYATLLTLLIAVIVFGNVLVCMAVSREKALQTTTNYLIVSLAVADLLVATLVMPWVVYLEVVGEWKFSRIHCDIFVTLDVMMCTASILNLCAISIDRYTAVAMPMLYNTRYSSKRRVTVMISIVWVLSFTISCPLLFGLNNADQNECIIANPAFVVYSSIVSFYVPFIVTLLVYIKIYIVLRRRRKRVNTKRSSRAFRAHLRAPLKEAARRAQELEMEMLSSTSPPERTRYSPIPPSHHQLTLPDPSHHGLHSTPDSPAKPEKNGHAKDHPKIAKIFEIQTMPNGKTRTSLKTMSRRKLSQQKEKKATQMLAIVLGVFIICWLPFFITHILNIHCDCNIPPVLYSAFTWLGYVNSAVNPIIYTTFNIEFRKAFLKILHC
- Protocol description: cAMP assay, inhibition at human dopamine D2S receptors
Measurement label: IC50

## Input Report IC50 for c1csc([C@@H]2CNCCO2)c1 [Compound 50B] please.
## Output > 100 µM

====

- Protocol description: Pharmacokinetics study in rats
- Assay type: in vivo, Sprague–Dawley rats
- Recorded conditions: Sprague-Dawley, rat, plasma, po; male rats, 5 mg/kg, i.g.; read-out: CL/F (converted)
Measurement label: CL/F (mL/min/kg)
Supply the numeric figure in mL/min/kg, leaving out any unit text.

## Input Report CL/F for c1csc([C@@H]2CNCCO2)c1 [Compound 50B] please.
## Output 26
